# tested.system: recombinant human NF-kappaB-inducing kinase (NIK/MAP3K14) (Homo sapiens (Human), UniProt Q99558)
# Sequence (Q99558 whole entry): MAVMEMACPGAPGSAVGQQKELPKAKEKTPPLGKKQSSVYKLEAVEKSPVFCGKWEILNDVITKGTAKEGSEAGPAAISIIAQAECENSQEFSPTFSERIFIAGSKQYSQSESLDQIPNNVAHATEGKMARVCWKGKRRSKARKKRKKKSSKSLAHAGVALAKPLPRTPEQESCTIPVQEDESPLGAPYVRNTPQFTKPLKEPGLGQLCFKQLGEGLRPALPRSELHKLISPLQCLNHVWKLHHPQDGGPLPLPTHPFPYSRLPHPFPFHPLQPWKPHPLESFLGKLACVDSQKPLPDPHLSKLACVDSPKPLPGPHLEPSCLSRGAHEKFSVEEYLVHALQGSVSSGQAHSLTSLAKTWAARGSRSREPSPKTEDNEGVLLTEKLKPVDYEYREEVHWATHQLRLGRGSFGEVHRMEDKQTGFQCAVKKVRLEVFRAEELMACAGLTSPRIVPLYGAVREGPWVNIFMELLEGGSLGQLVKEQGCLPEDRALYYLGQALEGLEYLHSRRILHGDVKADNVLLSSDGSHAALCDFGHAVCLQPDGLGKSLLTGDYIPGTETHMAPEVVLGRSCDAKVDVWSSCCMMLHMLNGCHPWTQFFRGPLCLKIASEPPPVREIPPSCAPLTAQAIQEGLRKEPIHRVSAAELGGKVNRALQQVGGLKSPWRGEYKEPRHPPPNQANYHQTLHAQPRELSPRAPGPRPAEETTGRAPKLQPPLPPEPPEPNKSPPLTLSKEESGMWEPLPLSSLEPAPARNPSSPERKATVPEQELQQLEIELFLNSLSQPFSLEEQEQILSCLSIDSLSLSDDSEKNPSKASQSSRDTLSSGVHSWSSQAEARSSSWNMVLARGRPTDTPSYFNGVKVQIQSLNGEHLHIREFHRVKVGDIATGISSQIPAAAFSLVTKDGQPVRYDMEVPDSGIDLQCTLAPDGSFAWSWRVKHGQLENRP
# assay.overview: Inhibition of auto-phosphorylation of recombinant human NIK/MAP3K14 (AlphaScreen)
# condition.label: NIK auto-phosphorylation, 5 μM ATP, 1 nM NIK, 2 h at 25° C.; average of values
reported.endpoint: IC50 (nM)

Check out these entries, answers already filled in.
molecule.smiles | reported.endpoint | quantitative.result
Cc1nc(-c2cccc(C#C[C@@]3(O)CCN(C)C3=O)c2)nc2c(N)ncnc12 | IC50 | 230
Cc1ccc(C#CC2(O)CCCC2)cc1-c1nc2c(N)ncnc2s1 | IC50 | 11
CN1CC[C@@](O)(C#Cc2cccc(-c3ccc4ccnc(N5CCC5)c4c3)c2)C1=O | IC50 | 1800
CN1CC[C@@](O)(C#Cc2cccc(-c3cc(Oc4cnn(C(F)F)c4)c4ncnc(N)c4n3)c2)C1=O | IC50 | 2.2
CN1CC[C@@](O)(C#Cc2cccc(-c3ccc4nc(C(F)(F)F)nc(N)c4n3)c2)C1=O | IC50 | 1.4

[1] CN1CC[C@@](O)(C#Cc2cccc(-c3ccc4ncnc(N5CC(F)(F)C5)c4n3)c2)C1=O
[2] Cc1nc(N)c2nc(-c3cccc(C#C[C@@](C)(O)c4nc(C(F)(F)F)cs4)c3)ccc2n1
[3] Cc1cc(-c2cccc(C#C[C@@]3(O)C(=O)N(C)[C@@H]4C[C@@H]43)c2)nc2c(N)ncnc12
[4] Cc1cc([C@](C)(O)C#Cc2cccc(-c3ccc4ccnc(N)c4n3)c2)no1
Sort the compounds on IC50; start with the lowest figure. A complete answer lists every label in the requested sequence.
3, 4, 1, 2
(3: 0.9 nM, 4: 2.3 nM, 1: 5.7 nM, 2: 1110 nM)

[I] COc1ccc(C#C[C@]2(O)CCN(C)C2=O)cc1-c1ccc2ncnc(N)c2n1
[II] Cc1nc(N)c2nc(-c3cccc(C#C[C@@](C)(O)c4nnc(C)o4)c3)ccc2n1
// pick larger IC50 from pair: I vs II Indicate which entry you chose by stating its label.
II
(II: 18 nM, I: 2.9 nM)
